These data points were gathered from ChEMBL document CHEMBL1143603.

Ki, Acetylcholinesterase (Homo sapiens, UniProt P22303): measured values

Record excerpt, results attached:
> print(dat)
                                   compound  test.result
1            O=C1C(Cl)=C(Cl)C(=O)C(Cl)=C1Cl     0.163 µM
2            COC(OC)(C(=O)c1ccccc1)c1ccccc1     > 100 µM
3       CC1CCC(=O)C1=O (stereo unspecified)     > 100 µM
4  CC1CC(C)(C)CC(=O)C1=O (stereo unspecified)     > 100 µM
5      CC1CCCC(=O)C1=O (stereo unspecified)     > 100 µM

From here, focus on the item given below.
Ki of `CC(=O)C(=O)c1ccccc1` on Acetylcholinesterase (Homo sapiens, UniProt P22303)?
> 100 µM
